Hello, the source for this data is PubChem BioAssay (NCI), in case you need it.

test: NCI Yeast Anticancer Drug Screen. Data for the bub3 strain (AID 167)
conditionContext: S. cerevisiae bub3 mutant strain, at 50.0 µM, active compounds read high
The panel holds about 79,000 compounds, 15% with a hit somewhere; the sample as a whole holds those more often.
Listing: growth inhibition of selected compounds
quantityKind: growth inhibition (%)

[[record]]
compound = "CC(=O)NC1c2ccccc2-c2ccccc21"
experimentalvalue = 17.3

[[record]]
compound = "COC(=O)/C=C/c1ccc(OP(=O)(O)O)c(OC)c1"
experimentalvalue = -56.7

[[record]]
compound = "O=C(OC1CCc2ccccc2C1)c1ccc(N=Nc2ccccc2)cc1 (configuration not stated)"
experimentalvalue = 5.95

[[record]]
compound = "O=C1Nc2ccccc2C1=O"
experimentalvalue = -12.3

[[record]]
compound = "CC(C)C1=CC2=CCC3C(C)(COC(=O)CSC(C)(C)C)CCCC3(C)C2CC1 (configuration not stated)"
experimentalvalue = -1.9

[[record]]
compound = "COc1ccc(C(C)c2cc3c(cc2OCCO)OCO3)cc1 (configuration not stated)"
experimentalvalue = 41.8

[[record]]
compound = "Oc1ccccc1C=Nc1cccnc1"
experimentalvalue = -0.6


###

test: NCI Yeast Anticancer Drug Screen. Data for the rad50 strain (AID 155);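 further: 0% = growth of vehicle-only cultures of the same strain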
conditionContext: S. cerevisiae rad50 strain growth inhibition; at 50.0 µM; active compounds read high
About 79,000 compounds went through this panel and 15% of them were active in at least one assay; those are over-represented in the sample as a whole.
Catalogue of growth inhibition readings, one per entry.
quantityKind: growth inhibition (%)

[[record]]
molecule = "COc1cc(C=C(C#N)C#N)ccc1OC(=O)c1cc(OC)c(OC)c(OC)c1"
quantitykind = "growth inhibition"
experimentalvalue = -1.5

[[record]]
molecule = "CCCCCCCCCCCC(=O)N(CCOC(=O)c1ccccc1)CCc1ccccc1"
quantitykind = "growth inhibition"
experimentalvalue = 32.6

[[record]]
molecule = "NC(=O)C(=Cn1c(=S)[nH]c2ccccc21)C(N)=O"
quantitykind = "growth inhibition"
experimentalvalue = -51.9

[[record]]
molecule = "CC(=O)NC(C)c1ccc2ccccc2c1 (stereo not given)"
quantitykind = "growth inhibition"
experimentalvalue = -5.4

[[record]]
molecule = "COc1cccc(C(=O)C(CCC#N)c2ccccc2)c1 (stereo not given)"
quantitykind = "growth inhibition"
experimentalvalue = 24.8


###

test: NCI Yeast Anticancer Drug Screen. Data for the cln2 rad14 strain (AID 165);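 further: 0% = growth equal to vehicle treated cultures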
conditionContext: S. cerevisiae cln2 rad14 strain, at 50.0 µM, active compounds read high
About 79,000 compounds went through this panel and 15% of them were active in at least one assay; those are over-represented in the sample as a whole. The source made the active and inactive calls. No stated cut-off is given here; in the data, active means growth inhibition above about 70%; inactive means the rest.
Each entry below lists one item and its recorded growth inhibition value.
quantityKind: growth inhibition

[[record]]
compound = "N#CCc1cn(-c2ccccc2)nn1"
experimentalvalue = "5.45% (inactive)"

[[record]]
compound = "CC(=O)c1ccc(O)c(C)c1"
experimentalvalue = "5.5% (inactive)"

[[record]]
compound = "CCCCc1c(C#N)c(=O)n2c(N)c(C#N)cnc2c1SC"
experimentalvalue = "1.5% (inactive)"

[[record]]
compound = "CC(C)C(C)(C(N)=O)C(C)C"
experimentalvalue = "17.9% (inactive)"

[[record]]
compound = "Brc1ccc(/C=C/c2ccnnc2)cc1"
experimentalvalue = "25.5% (inactive)"

[[record]]
compound = "CC1COCOC1c1ccc2c(c1)OCO2 (configuration not stated)"
experimentalvalue = "9.45% (inactive)"

[[record]]
compound = "O=C(NC(Cc1ccc(O)cc1)C(=O)O)C(=O)c1c[nH]c2ccc([N+](=O)[O-])cc12 (configuration not stated)"
experimentalvalue = "0.45% (inactive)"


###

test: NCI Yeast Anticancer Drug Screen. Data for the sgs1 mgt1 strain (AID 161);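 further: 0% = growth of cultures given vehicle only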
conditionContext: S. cerevisiae sgs1 mgt1 strain, at 50.0 µM
The panel holds about 79,000 compounds, 15% with a hit somewhere; the sample as a whole holds those more often. Active and inactive are the calls of the source. Rule as the data show it: active = growth inhibition above about 70%; inactive = the rest.
Possible outcomes: label 1 = active, label 0 = inactive

[[record]]
molecule = "O=c1c2cc([N+](=O)[O-])ccc2n2n1CCCC2"
class = "label 0"

[[record]]
molecule = "CC(COC(=O)c1ccc(N)cc1)NC1CCCCC1 (configuration not stated)"
class = "label 0"

[[record]]
molecule = "O=C1CC(C(=O)O)C(C(Cl)(Cl)Cl)O1 (configuration not stated)"
class = "label 0"

[[record]]
molecule = "CCOC(CN=C=S)OCC"
class = "label 0"

[[record]]
molecule = "CN(C)C(=O)OC1CCCCC1"
class = "label 0"

[[record]]
molecule = "CC(=O)OCC(OC(C)=O)C(OC(C)=O)C(OC(C)=O)C(S)S (configuration not stated)"
class = "label 0"

[[record]]
molecule = "C(=N\\c1nc2ccccc2s1)/c1cccs1"
class = "label 0"

[[record]]
molecule = "Cc1cc(C)nc(NS(=O)(=O)c2ccc(NC(=O)c3cccn4c(=O)c5ccccc5nc34)cc2)n1"
class = "label 0"

[[record]]
molecule = "O=C1NC(=O)N(C(F)(F)F)C(F)(F)N1C(F)(F)F"
class = "label 0"

[[record]]
molecule = "Cc1cc2nnn(-c3ncccc3[N+](=O)[O-])c2cc1C"
class = "label 0"

[[record]]
molecule = "CCOC(=O)C1C=NC([N+](=O)[O-])=C1Br (configuration not stated)"
class = "label 0"

[[record]]
molecule = "CCOC(=O)c1ncc(Cl)cc1NC(=O)CC(=O)Nc1cc(Cl)cnc1C(=O)OCC"
class = "label 0"

[[record]]
molecule = "Nc1c(C(=O)Nc2cccc3c2C(=O)c2ccccc2C3=O)ccc2c1C(=O)c1ccccc1C2=O"
class = "label 0"

[[record]]
molecule = "O=C1C=C/C(=N/c2ccc(O)o2)c2ccccc21"
class = "label 0"

[[record]]
molecule = "CC1CN(c2nc3ccccc3o2)C(C)CN1c1nc2ccccc2o1 (configuration not stated)"
class = "label 0"

[[record]]
molecule = "Oc1c(Cl)cc(N=Cc2ccc(N(CCCCl)CCCCl)cc2Cl)cc1Cl"
class = "label 1"

[[record]]
molecule = "O=C(O)CCn1cnc2c(=S)nc[nH]c21"
class = "label 0"


###

test: NCI Yeast Anticancer Drug Screen. Data for the mec2-1 strain (AID 157)
conditionContext: S. cerevisiae mec2-1 strain, at 50.0 µM, active compounds read high
Method: Growth inhibition of yeast strains with defined genetic alterations is measured as a screen for potential anti-cancer activity. Selected strains with alterations in DNA damage repair or cell cycle control were exposed to compounds and growth inhibition was measured relative to vehicle treated controls. The strain used in this assay is mec2-1
About 79,000 compounds went through this panel and 15% of them were active in at least one assay; those are over-represented in the sample as a whole.
quantityKind: growth inhibition (%)

[[record]]
molecule = "CCCCB1OB(CCCC)OB(CCCC)O1"
quantitykind = "growth inhibition"
experimentalvalue = -17.8

[[record]]
molecule = "CCOC=C(C(=O)OCC)C(=O)OCC"
quantitykind = "growth inhibition"
experimentalvalue = -7.45

[[record]]
molecule = "COc1ccc(NC(C)=O)c([N+](=O)[O-])c1"
quantitykind = "growth inhibition"
experimentalvalue = 0.25

[[record]]
molecule = "COc1ccc(C(c2cc3c(cc2O)OCO3)N2CCCCC2)c(OC)c1 (stereo not given)"
quantitykind = "growth inhibition"
experimentalvalue = -13.1

[[record]]
molecule = "O=[N+]([O-])c1ccc(F)cc1C(F)(F)F"
quantitykind = "growth inhibition"
experimentalvalue = -17.4

[[record]]
molecule = "COc1c(C)c(OCC=C(C)C)cc(CO)c1CO"
quantitykind = "growth inhibition"
experimentalvalue = -3.2

[[record]]
molecule = "Cn1c2c(c3ccccc31)=NN1CCN=C1N=2"
quantitykind = "growth inhibition"
experimentalvalue = -2.95

[[record]]
molecule = "CC(=O)Nc1cccc2[nH]c(=O)c3ccccc3c12"
quantitykind = "growth inhibition"
experimentalvalue = -6.4

[[record]]
molecule = "CCCCCCCCCC(C)(O)C(N)=O (stereo not given)"
quantitykind = "growth inhibition"
experimentalvalue = -6.15

[[record]]
molecule = "CC(=O)OC1CCC2(C)C(CCC3C2CCC2(C)C3CC3OC(CCC(C)CO)C(C)C32)C1 (stereo not given)"
quantitykind = "growth inhibition"
experimentalvalue = 8.55

[[record]]
molecule = "COc1cc(S(=O)(=O)O)ccc1N=N/C(=N\\Nc1ccc(S(=O)(=O)O)cc1OC)C(N)=O"
quantitykind = "growth inhibition"
experimentalvalue = 5.55

[[record]]
molecule = "O=C1NC=NC1c1ccccc1 (stereo not given)"
quantitykind = "growth inhibition"
experimentalvalue = -10.4

[[record]]
molecule = "O=C(NNC(=S)Nc1ccccc1)C12CC3CC(CC(C3)C1)C2"
quantitykind = "growth inhibition"
experimentalvalue = 31.4

[[record]]
molecule = "CCSCC1C=CC(n2cnc3c(N)ncnc32)O1 (stereo not given)"
quantitykind = "growth inhibition"
experimentalvalue = -29.2

[[record]]
molecule = "C1CC(CCC2CCNCC2)CCN1"
quantitykind = "growth inhibition"
experimentalvalue = 1.15


###

test: NCI Yeast Anticancer Drug Screen. Data for the mec2-1 strain (AID 157)
conditionContext: S. cerevisiae mec2-1 strain, at 50.0 µM, active compounds read high
About 79,000 compounds went through this panel and 15% of them were active in at least one assay; those are over-represented in the sample as a whole.
quantityKind: growth inhibition (%)

[[record]]
compound = "C=CCOCCC(OCC=C)OCC=C"
quantitykind = "growth inhibition"
experimentalvalue = 7.75

[[record]]
compound = "CO/C=C/CCCNCc1ccccc1"
quantitykind = "growth inhibition"
experimentalvalue = -27.4

[[record]]
compound = "CC1=C/C(=N\\O)C(C(O)(C(F)(F)F)C(F)(F)F)C(C)(C)C1 (stereo not drawn)"
quantitykind = "growth inhibition"
experimentalvalue = -39

[[record]]
compound = "Cc1ccc(O)c(C(C)(C)C)c1"
quantitykind = "growth inhibition"
experimentalvalue = -8

[[record]]
compound = "[N-]=[N+]=NCC1OCOC1C1OCOC1CN=[N+]=[N-] (stereo not drawn)"
quantitykind = "growth inhibition"
experimentalvalue = 10.6

[[record]]
compound = "N#C/C(=C1\\OC(=O)C(c2ccc(Br)cc2)=C1O)c1ccc(Br)cc1"
quantitykind = "growth inhibition"
experimentalvalue = 2.45

[[record]]
compound = "Cc1cc(C)c(NC(=O)c2c(Cl)c(Cl)c(Cl)c(Cl)c2C(=O)O)c(C)c1"
quantitykind = "growth inhibition"
experimentalvalue = -4.45

[[record]]
compound = "CC(=O)OC(C)N(C(C)=O)c1ncc([N+](=O)[O-])s1 (stereo not drawn)"
quantitykind = "growth inhibition"
experimentalvalue = 2.4

[[record]]
compound = "CN1CCC2(CC1)C(=O)N(NC(N)=O)C(=O)C2c1ccccc1 (stereo not drawn)"
quantitykind = "growth inhibition"
experimentalvalue = 2.15

[[record]]
compound = "CN(C)C(=S)Oc1cc(Cl)c(Cl)cc1Cl"
quantitykind = "growth inhibition"
experimentalvalue = 95.6

[[record]]
compound = "COc1cc(C2c3cc4c(cc3OC(N3CCCCC3)C2C)OCO4)cc(OC)c1OC (stereo not drawn)"
quantitykind = "growth inhibition"
experimentalvalue = -20.1

[[record]]
compound = "CCCCS/C=C\\SCCCC"
quantitykind = "growth inhibition"
experimentalvalue = 7.55

[[record]]
compound = "Cn1c(=O)c2[nH]c(SCc3ccccn3)nc2n(C)c1=S"
quantitykind = "growth inhibition"
experimentalvalue = -42.5

[[record]]
compound = "O=C1c2ccccc2C(=O)c2c1ccc1c2N=C(c2ccc(Br)cc2)CC(c2cccc3ccccc23)N1 (stereo not drawn)"
quantitykind = "growth inhibition"
experimentalvalue = 11.6

[[record]]
compound = "Oc1ccccc1C=Nc1cccnc1"
quantitykind = "growth inhibition"
experimentalvalue = -19.5

[[record]]
compound = "Cc1[nH]ccc2c3ccc(=O)cc3n(S(=O)(=O)O)c12"
quantitykind = "growth inhibition"
experimentalvalue = -8.3

[[record]]
compound = "CSc1nc(NC2OCC(OC(C)=O)C(OC(C)=O)C2OC(C)=O)c2c(n1)OCC2=O (stereo not drawn)"
quantitykind = "growth inhibition"
experimentalvalue = -21.6

[[record]]
compound = "O=C(/C=C\\c1ccccc1Cl)/C=C/c1ccccc1Cl"
quantitykind = "growth inhibition"
experimentalvalue = 2.75

[[record]]
compound = "CC(O)(c1ccco1)c1nc2ccccc2s1 (stereo not drawn)"
quantitykind = "growth inhibition"
experimentalvalue = 15.6

[[record]]
compound = "C=CCNC(=O)N(CCCCC(NC(C)=O)C(=O)NCc1ccccc1)Cc1ccccc1 (stereo not drawn)"
quantitykind = "growth inhibition"
experimentalvalue = 6.55

[[record]]
compound = "C(=N\\c1nc2ccccc2s1)/c1cccs1"
quantitykind = "growth inhibition"
experimentalvalue = -34

[[record]]
compound = "O=C(Cl)CN1C(=O)c2ccccc2C1=O"
quantitykind = "growth inhibition"
experimentalvalue = -24

[[record]]
compound = "CN(C)c1c(F)c(F)c(N=Nc2ccccc2)c(F)c1F"
quantitykind = "growth inhibition"
experimentalvalue = -2.6

[[record]]
compound = "Nc1ncnc(N)c1NC(=O)c1cccc(F)c1"
quantitykind = "growth inhibition"
experimentalvalue = -1.3

[[record]]
compound = "OCC(O)CNc1ncnc2ccccc12 (stereo not drawn)"
quantitykind = "growth inhibition"
experimentalvalue = -11.8

[[record]]
compound = "CC(=O)Oc1cccc2c1C(=O)c1ccccc1C2=O"
quantitykind = "growth inhibition"
experimentalvalue = 5.3

[[record]]
compound = "C=CCOC(=O)NC(CCC(=O)OC)C(=O)O (stereo not drawn)"
quantitykind = "growth inhibition"
experimentalvalue = -2.1

[[record]]
compound = "CCOC(=O)C(C)(C(=O)OCC)c1c[n+]([O-])c2ccccc2c1[N+](=O)[O-]"
quantitykind = "growth inhibition"
experimentalvalue = -5.15

[[record]]
compound = "CCCCCCCC[N+](C)(C)CC#CC[N+](C)(C)CCCCCCCC"
quantitykind = "growth inhibition"
experimentalvalue = -14.3

[[record]]
compound = "O=C(Nc1ccc(F)c([N+](=O)[O-])c1)Nc1ccccc1C(F)(F)F"
quantitykind = "growth inhibition"
experimentalvalue = 29.6

[[record]]
compound = "COC(=O)C12OCC34C(CC5C(C)CC(=O)C(O)C5(C)C3C(O)C1O)OC(=O)C(OC(C)=O)C24 (stereo not drawn)"
quantitykind = "growth inhibition"
experimentalvalue = 44.4

[[record]]
compound = "O=C(c1ccccc1)c1cnc2ccccn12"
quantitykind = "growth inhibition"
experimentalvalue = -2.35

[[record]]
compound = "CCOc1ccc2nc(NC(=O)C(=O)C3C(=O)C(CC4C(=O)c5ccccc5C4=O)C(=O)CC3(C)C)sc2c1 (stereo not drawn)"
quantitykind = "growth inhibition"
experimentalvalue = -1.1

[[record]]
compound = "N#CCCn1c(CCC(=O)Nc2ccc(Cl)cc2Cl)n[nH]c1=S"
quantitykind = "growth inhibition"
experimentalvalue = 0.65

[[record]]
compound = "CC1CN(CCO)C(C)(C)C1 (stereo not drawn)"
quantitykind = "growth inhibition"
experimentalvalue = 17.8

[[record]]
compound = "COC1=C2CC(C)CC(OC)C(O)C(C)/C=C(\\C)C(OC(N)=O)C(OC)/C=C\\C=C(/C)C(=O)NC(=C(C=NC(C)(C)C)C1=O)C2=O (stereo not drawn)"
quantitykind = "growth inhibition"
experimentalvalue = 23.2

[[record]]
compound = "CCOC(=O)C1=C(O)C(=O)c2ccoc2C1=O"
quantitykind = "growth inhibition"
experimentalvalue = -35.2

[[record]]
compound = "C=C(c1ccccc1)C1(O)CCCCC1N(C)C (stereo not drawn)"
quantitykind = "growth inhibition"
experimentalvalue = -13.8

